Value source: ChEMBL document CHEMBL1961873

# reported inhibition; entries follow
# studySystem: Inhibitor of nuclear factor kappa-B kinase subunit alpha (Homo sapiens) (UniProt O15111);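 also: mean inhibition of IKKA, from the GSK PKIS data set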
# Sequence (whole entry): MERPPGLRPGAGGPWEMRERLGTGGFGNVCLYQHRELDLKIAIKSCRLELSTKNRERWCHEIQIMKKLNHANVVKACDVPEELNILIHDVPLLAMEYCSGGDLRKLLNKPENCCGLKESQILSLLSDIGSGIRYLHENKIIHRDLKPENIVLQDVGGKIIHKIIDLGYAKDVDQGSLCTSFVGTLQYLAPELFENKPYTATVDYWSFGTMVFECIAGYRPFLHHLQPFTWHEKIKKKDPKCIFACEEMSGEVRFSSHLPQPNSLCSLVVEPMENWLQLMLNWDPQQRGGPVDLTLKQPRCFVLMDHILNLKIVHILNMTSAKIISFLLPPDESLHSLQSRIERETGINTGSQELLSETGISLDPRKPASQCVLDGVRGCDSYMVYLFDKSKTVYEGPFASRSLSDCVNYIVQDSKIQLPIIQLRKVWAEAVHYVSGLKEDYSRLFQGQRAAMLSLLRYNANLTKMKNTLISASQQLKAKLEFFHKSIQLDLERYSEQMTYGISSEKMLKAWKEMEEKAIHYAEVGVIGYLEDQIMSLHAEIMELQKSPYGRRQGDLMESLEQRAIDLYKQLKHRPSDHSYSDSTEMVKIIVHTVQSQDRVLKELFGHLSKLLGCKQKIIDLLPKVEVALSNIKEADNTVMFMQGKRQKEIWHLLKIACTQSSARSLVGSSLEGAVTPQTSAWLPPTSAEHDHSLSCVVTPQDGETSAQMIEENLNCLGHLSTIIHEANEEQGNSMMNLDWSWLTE
# protocolConditions: at 1 µM

- compound: "OCc1ccc(-c2nc(-c3ccccn3)c(-c3ccc4c(c3)OCO4)[nH]2)cc1"
  inhibition [%]: 8.08
- compound: "c1ccc(Nc2ncc(-c3ccccc3)o2)cc1"
  inhibition [%]: 6.78
- compound: "FC(F)(F)c1ccc(-c2nn3ncccc3c2-c2ccnc(Nc3ccc4c(c3)OCCO4)n2)cc1"
  inhibition [%]: 0.75
- compound: "COc1cc2ncnc(Nc3ccc(C)c(O)c3)c2cc1OC"
  inhibition [%]: 11.6
- compound: "Cc1ccc(Nc2ccnc(Nc3cccc(C(N)=O)c3)n2)cc1O"
  inhibition [%]: 9.75
- compound: "NS(=O)(=O)c1cccc(-c2cc3ccncc3cc2OCc2ccccc2)c1"
  inhibition [%]: 10.9
- compound: "Nc1nccc(-c2c(-c3ccc(F)cc3)nn3cc(C(F)(F)F)ccc23)n1"
  inhibition [%]: -2.01
- compound: "CC(C)c1ccc2c(c1)NC(=O)/C2=N/Nc1ccc(S(N)(=O)=O)cc1"
  inhibition [%]: -4.08
- compound: "CCCN1CCCC(c2ccc(Nc3nc(Nc4cc(F)ccc4C(N)=O)c4cc[nH]c4n3)c(OC)c2)C1 (stereo unspecified)"
  inhibition [%]: 4.21
- compound: "COc1cc2ncnc(Nc3ccc4c(cnn4Cc4ccccc4)c3)c2cc1OC"
  inhibition [%]: 8.23
- compound: "COc1cccc(-n2nc(C)c3c(N/N=C(\\C)c4ccncc4)ncnc32)c1"
  inhibition [%]: -2.68
- compound: "Cc1ccc(O)cc1Nc1ccnc2ccc(S(C)(=O)=O)cc12"
  inhibition [%]: 9.92
- compound: "Nc1nccc(C#Cc2cncnc2Nc2ccc(OCc3cccc(F)c3)c(Cl)c2)n1"
  inhibition [%]: 2.46
- compound: "Cc1ccc2c(-c3ccnc(Nc4ccc5c(c4)OCCO5)n3)c(-c3ccc(C(F)(F)F)cc3)nn2n1"
  inhibition [%]: 0.46
- compound: "NS(=O)(=O)c1ccc(N/N=C2\\C(=O)Nc3ccc(Cl)cc32)cc1"
  inhibition [%]: 10.7
- compound: "C[C@@H](Oc1cc(-n2cnc3ccc(OC[C@@H](O)CO)cc32)sc1C(N)=O)c1ccccc1Cl"
  inhibition [%]: -3.48
- compound: "NC(=O)c1cccc(Nc2nccc(Nc3cccc(F)c3)n2)c1"
  inhibition [%]: 4.67
- compound: "ON=C1CCc2cc(-c3nc(C4CCNCC4)[nH]c3-c3ccncc3)ccc21"
  inhibition [%]: -1.59
- compound: "NS(=O)(=O)c1ccc(-c2cc3ccncc3cc2OCc2ccccc2)cc1"
  inhibition [%]: 8.71
- compound: "COc1cccc(-n2ncc3c(N/N=C/c4ccc(C)cc4)ncnc32)c1"
  inhibition [%]: 9.99
- compound: "COc1cc(/C=N/Nc2ncnc3c2cnn3C(C)C)ccc1O"
  inhibition [%]: -0.51

###

# studySystem: Ribosomal protein S6 kinase alpha-2 (Homo sapiens) (UniProt Q15349);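 also: reported value is the mean percent inhibition of RSK3, from the GSK PKIS screening panel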
# Sequence (Q15349 whole entry): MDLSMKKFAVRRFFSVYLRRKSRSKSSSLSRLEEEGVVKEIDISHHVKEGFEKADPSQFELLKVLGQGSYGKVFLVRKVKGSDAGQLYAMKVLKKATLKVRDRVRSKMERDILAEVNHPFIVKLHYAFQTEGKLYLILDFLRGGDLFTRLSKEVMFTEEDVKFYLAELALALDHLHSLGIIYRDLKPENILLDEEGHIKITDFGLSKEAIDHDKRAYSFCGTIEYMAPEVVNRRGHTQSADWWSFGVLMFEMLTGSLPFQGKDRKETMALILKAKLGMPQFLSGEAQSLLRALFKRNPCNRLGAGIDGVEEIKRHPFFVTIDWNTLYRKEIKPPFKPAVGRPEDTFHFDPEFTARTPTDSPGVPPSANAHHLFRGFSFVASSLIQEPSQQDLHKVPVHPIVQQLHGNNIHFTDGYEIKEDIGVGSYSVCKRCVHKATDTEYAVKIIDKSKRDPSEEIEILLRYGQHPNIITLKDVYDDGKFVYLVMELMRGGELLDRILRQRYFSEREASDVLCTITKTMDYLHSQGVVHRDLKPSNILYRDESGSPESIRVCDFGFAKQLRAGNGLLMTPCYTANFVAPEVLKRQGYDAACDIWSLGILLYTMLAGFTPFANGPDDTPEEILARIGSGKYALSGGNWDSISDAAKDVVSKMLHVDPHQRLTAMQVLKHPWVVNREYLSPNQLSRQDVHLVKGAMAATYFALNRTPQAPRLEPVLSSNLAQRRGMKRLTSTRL
# protocolConditions: at 0.1 µM
Items are presented alongside their recorded inhibition.

- chemicalStructure: "COC(=O)c1ccc2c(c1)C(=Cc1cc(Br)c(O)c(Br)c1)C(=O)N2"
  studySystem: "Ribosomal protein S6 kinase alpha-2 (Homo sapiens) (UniProt Q15349)"
  inhibition (%): 3.99
- chemicalStructure: "Cc1nc(-c2ccccc2)n2nc(NCCCN3CCOCC3)ncc12"
  studySystem: "Ribosomal protein S6 kinase alpha-2 (Homo sapiens) (UniProt Q15349)"
  inhibition (%): 3.24
- chemicalStructure: "CN(C)C(=O)O[C@H]1CN[C@H](C#Cc2cc3ncnc(Nc4ccc(OCc5cccc(F)c5)c(Cl)c4)c3s2)C1"
  studySystem: "Ribosomal protein S6 kinase alpha-2 (Homo sapiens) (UniProt Q15349)"
  inhibition (%): 0.37
- chemicalStructure: "O=C1Nc2ccc(-c3cccnc3)cc2C1=Cc1cc(Br)c(O)c(Br)c1"
  studySystem: "Ribosomal protein S6 kinase alpha-2 (Homo sapiens) (UniProt Q15349)"
  inhibition (%): 1.03
- chemicalStructure: "COC(=O)Nc1nc2cc(Oc3ccc(NC(=O)Nc4cccc(Br)c4)cc3)ccc2[nH]1"
  studySystem: "Ribosomal protein S6 kinase alpha-2 (Homo sapiens) (UniProt Q15349)"
  inhibition (%): 1.65
- chemicalStructure: "CS(=O)(=O)Nc1cccc(-c2ccc3c(NC(=O)C4CC4)n[nH]c3c2)c1"
  studySystem: "Ribosomal protein S6 kinase alpha-2 (Homo sapiens) (UniProt Q15349)"
  inhibition (%): 1.1
- chemicalStructure: "CCS(=O)(=O)c1ccc(OC)c(Nc2ncc(-c3cccc(OC)c3)o2)c1"
  studySystem: "Ribosomal protein S6 kinase alpha-2 (Homo sapiens) (UniProt Q15349)"
  inhibition (%): 1.33
- chemicalStructure: "Oc1cccc(-c2nc(-c3ccccc3)[nH]c2-c2ccncc2)c1"
  studySystem: "Ribosomal protein S6 kinase alpha-2 (Homo sapiens) (UniProt Q15349)"
  inhibition (%): 1.27
- chemicalStructure: "COC(=O)c1cncc(/C=C/c2c(C)cc(O)cc2C)c1"
  studySystem: "Ribosomal protein S6 kinase alpha-2 (Homo sapiens) (UniProt Q15349)"
  inhibition (%): 2.03
- chemicalStructure: "CN(C)CCCn1c(-c2nonc2N)nc2cnccc21"
  studySystem: "Ribosomal protein S6 kinase alpha-2 (Homo sapiens) (UniProt Q15349)"
  inhibition (%): 4.55

###

# studySystem: Protein kinase C eta type (Homo sapiens);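 also: value is the mean inhibition, from GSK PKIS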
# protocolConditions: at 1 µM
propertyMeasured: inhibition (%)

- chemicalStructure: "COc1cccc(-n2ncc3c(N/N=C/c4ccc(S(C)(=O)=O)cc4)ncnc32)c1"
  propertyMeasured: "inhibition"
  units: "%"
  observedMeasurement: 2.85
- chemicalStructure: "NC(=O)c1cccc(Nc2nccc(Nc3cccc(F)c3)n2)c1"
  propertyMeasured: "inhibition"
  units: "%"
  observedMeasurement: 2.62
- chemicalStructure: "Cc1cc(O)cc(C)c1/C=C/c1cncc(C(=O)N(C)C)c1"
  propertyMeasured: "inhibition"
  units: "%"
  observedMeasurement: 4.61
- chemicalStructure: "O=C1Nc2ccc(-c3cccnc3)cc2C1=Cc1cc(Br)c(O)c(Br)c1"
  propertyMeasured: "inhibition"
  units: "%"
  observedMeasurement: 0.7
- chemicalStructure: "Cc1ccc2c(c1)/C(=N/Nc1ccc(S(N)(=O)=O)cc1)C(=O)N2"
  propertyMeasured: "inhibition"
  units: "%"
  observedMeasurement: -1.47
- chemicalStructure: "CN(C)CCCn1c(-c2nonc2N)nc2cnccc21"
  propertyMeasured: "inhibition"
  units: "%"
  observedMeasurement: 10
- chemicalStructure: "Cc1ccc2c(-c3ccnc(Nc4ccc5c(c4)OCCO5)n3)c(-c3ccc(C(F)(F)F)cc3)nn2n1"
  propertyMeasured: "inhibition"
  units: "%"
  observedMeasurement: 3.26
- chemicalStructure: "Nc1nccc(C#Cc2cncnc2Nc2ccc(OCc3cccc(F)c3)c(Cl)c2)n1"
  propertyMeasured: "inhibition"
  units: "%"
  observedMeasurement: -0.12
- chemicalStructure: "N#Cc1c(NC(=O)c2ccccc2F)sc2c1CCCC2"
  propertyMeasured: "inhibition"
  units: "%"
  observedMeasurement: 1.15
- chemicalStructure: "NS(=O)(=O)c1cccc(Nc2cc(-c3ccc(F)cc3)n[nH]2)c1"
  propertyMeasured: "inhibition"
  units: "%"
  observedMeasurement: 5.6

###

Measured inhibition accompanies every entry in the list below.
# studySystem: Angiopoietin-1 receptor (Homo sapiens)
# protocolConditions: at 0.1 µM
# Description: GSK_PKIS: TIE2 mean inhibition at 0.1 uM [Nanosyn]

- chemicalStructure: "NS(=O)(=O)c1cccc(Nc2cc(-c3ccc(F)cc3)n[nH]2)c1"
  units: "%"
  inhibition: 0.52
- chemicalStructure: "COC(=O)c1cncc(/C=C/c2c(C)cc(O)cc2C)c1"
  units: "%"
  inhibition: 1
- chemicalStructure: "Oc1cccc(-c2nc(-c3ccccc3)[nH]c2-c2ccncc2)c1"
  units: "%"
  inhibition: 3.23
- chemicalStructure: "NS(=O)(=O)c1ccc(N/N=C2\\C(=O)Nc3ccc(Cl)cc32)cc1"
  units: "%"
  inhibition: 0.79
- chemicalStructure: "CN(C)CCCn1c(-c2nonc2N)nc2cnccc21"
  units: "%"
  inhibition: 0.92
- chemicalStructure: "NS(=O)(=O)c1ccc(-c2cc3ccncc3cc2OCc2ccccc2)cc1"
  units: "%"
  inhibition: 1.38
- chemicalStructure: "CCn1c(-c2nonc2N)nc2c(C#CC(C)(C)O)nc(OCCNC)cc21"
  units: "%"
  inhibition: 2.67
- chemicalStructure: "C[C@@H](Oc1cc(-n2cnc3ccc(OC[C@@H](O)CO)cc32)sc1C(N)=O)c1ccccc1Cl"
  units: "%"
  inhibition: 2.55
- chemicalStructure: "COc1cc2ncn(-c3cc(OCc4ccccc4S(C)(=O)=O)c(C#N)s3)c2cc1OC"
  units: "%"
  inhibition: 5.63
- chemicalStructure: "Cc1cc(O)cc(C)c1/C=C/c1cncc(C(=O)N(C)C)c1"
  units: "%"
  inhibition: 5.65
